meta.source: ChEMBL document CHEMBL3988442

Entries annotated with measured Percent Effect
- MEASURED ON: Chromo domain-containing protein 1 (Saccharomyces cerevisiae (strain ATCC 204508 / S288c) (Baker's yeast))
- ASSAY DETAILS: ScCHD-1 Enzyme Inhibition Assay; note: in the data most compounds retested in dose-response had high values
- Assay type: functional
- Parameters: scale not given: direction of the effect not stated beside the values
- SETTINGS: 30 µM
# output: bare number, implied unit %

{"columns": ["COMPOUND", "UNIT DESCRIPTOR", "Percent Effect"],
 "data": [
  ["c1ccc(-c2nnn3c2COC(CNCC2CCOCC2)C3)cc1 (stereo unspecified)", "%", -2.25],
  ["COCCOc1ccc(NC(=O)C2CCC2)cn1", "%", -6.65],
  ["O=C(CCOCc1ccccc1)N1CCCC1c1noc(C2CC2)n1 (stereo unspecified)", "%", -10],
  ["CC(C)CN1C(=O)c2ccc(C(=O)NCCc3c[nH]cn3)cc2C1=O", "%", -5.85],
  ["CN(C)S(=O)(=O)c1ccc(OCCNCCn2cccn2)cc1", "%", -41.4]
]}

With those in mind, consider the next compound.
The compound CC1CCN(Cc2cnc(S(=O)(=O)CC3CC3)n2CC2CCCO2)CC1 (stereo unspecified) showed Percent Effect equal to 5.99

###

- MEASURED ON: Ubiquitin-activating enzyme e1, putative (Leishmania donovani (strain BPK282A1))
- Sequence (whole entry): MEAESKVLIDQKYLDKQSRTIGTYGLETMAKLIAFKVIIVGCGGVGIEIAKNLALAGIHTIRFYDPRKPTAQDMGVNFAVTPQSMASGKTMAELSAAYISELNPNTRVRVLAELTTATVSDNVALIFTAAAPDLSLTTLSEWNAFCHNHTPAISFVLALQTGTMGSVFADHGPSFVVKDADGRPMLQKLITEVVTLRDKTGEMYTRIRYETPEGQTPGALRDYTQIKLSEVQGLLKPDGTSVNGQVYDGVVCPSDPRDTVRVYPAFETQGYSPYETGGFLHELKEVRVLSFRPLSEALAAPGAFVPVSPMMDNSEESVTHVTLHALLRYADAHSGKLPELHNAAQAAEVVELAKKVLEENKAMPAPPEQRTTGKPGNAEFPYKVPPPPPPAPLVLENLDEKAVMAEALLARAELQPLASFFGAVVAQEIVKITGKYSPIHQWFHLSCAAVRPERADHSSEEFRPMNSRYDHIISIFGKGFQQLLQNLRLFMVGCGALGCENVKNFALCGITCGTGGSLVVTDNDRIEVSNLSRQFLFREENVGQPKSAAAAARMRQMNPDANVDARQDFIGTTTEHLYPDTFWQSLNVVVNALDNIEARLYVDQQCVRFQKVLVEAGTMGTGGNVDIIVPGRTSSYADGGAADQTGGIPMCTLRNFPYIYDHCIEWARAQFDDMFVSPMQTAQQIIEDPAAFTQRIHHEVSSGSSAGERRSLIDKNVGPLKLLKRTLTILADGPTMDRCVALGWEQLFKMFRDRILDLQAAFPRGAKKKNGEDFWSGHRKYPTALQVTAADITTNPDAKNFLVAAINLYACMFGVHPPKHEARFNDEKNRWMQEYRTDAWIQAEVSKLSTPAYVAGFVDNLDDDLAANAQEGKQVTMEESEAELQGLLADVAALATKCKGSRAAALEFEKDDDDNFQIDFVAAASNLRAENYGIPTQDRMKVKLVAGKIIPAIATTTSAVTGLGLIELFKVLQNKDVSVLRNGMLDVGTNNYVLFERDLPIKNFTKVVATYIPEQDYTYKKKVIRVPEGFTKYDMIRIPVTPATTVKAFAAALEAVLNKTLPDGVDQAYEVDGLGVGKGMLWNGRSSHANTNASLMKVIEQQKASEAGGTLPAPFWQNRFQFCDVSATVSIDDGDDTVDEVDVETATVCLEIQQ
- ASSAY DETAILS: Leishmania donovani Ubiquitin Activating Enzyme (LdE1)
- Type: functional
- Design: scale not given: direction of the effect not stated beside the values
- SETTINGS: 30 µM
Entries with a potency or affinity are not part of this list.
MEASURE: Percent Effect (%)
Report as a plain number; the unit % is understood.

Use the examples below as a reference point.
{"columns": ["COMPOUND", "Percent Effect / %"],
 "data": [
  ["O=C(CCNC(=O)c1ccoc1)Nc1c(F)cccc1F", 18.2],
  ["CCc1nccn1C1CCCN(C(=O)c2ccc3[nH]cnc3c2)C1 (stereo not given)", 2.63],
  ["N#Cc1ccc(CNCC(C(=O)N2CCOCC2)c2ccccc2)cc1 (stereo not given)", 10.4]
]}

Given the compound COc1ccc(CNC(=O)NCc2c(C)cc(C)[nH]c2=O)cc1 and test system Ubiquitin-activating enzyme e1, putative (Leishmania donovani (strain BPK282A1)), the measured Percent Effect is 13.2

Hey, Ubiquitin-activating enzyme e1, putative (Leishmania donovani (strain BPK282A1)) data for O=C(N1CCCC1)N1CCO[C@H]2[C@@H](Oc3ccccn3)CC[C@@H]21 : Percent Effect came out at 2.67

Considering NC(=O)C1CCN(C(=O)c2ccn(-c3ccc(F)cc3)n2)C1 (stereo not given) , its Percent Effect with Ubiquitin-activating enzyme e1, putative (Leishmania donovani (strain BPK282A1)) was recorded as 5.41

So the reported Percent Effect for c1nc(CCC2CCCN2)cc(N2CCCOCC2)n1 (stereo not given) , on Ubiquitin-activating enzyme e1, putative (Leishmania donovani (strain BPK282A1)), turned out to be 9.46

Lab entry: Ubiquitin-activating enzyme e1, putative (Leishmania donovani (strain BPK282A1)) assay, compound CCCc1n[nH]c(C2CN(CCCS(C)(=O)=O)CCO2)n1 (stereo not given) , Percent Effect = 11.4

Ubiquitin-activating enzyme e1, putative (Leishmania donovani (strain BPK282A1)) assay, compound COCCn1c2c(ccc1=O)CC(NS(C)(=O)=O)CC2 (stereo not given) , recorded Percent Effect = 13.3

###

- System: Trypanosoma cruzi
- ASSAY DETAILS: Trypanosoma cruzi phosphomannomutase and mannose-1-phosphate guanylyltransferase assay
- Format: functional
- Parameters: scale not given: direction of the effect not stated beside the values
- SETTINGS: 10 µM
# Percent Effect listing for each entry below
A number alone suffices; assume %.

{"columns": ["COMPOUND", "UNIT DESCRIPTOR", "MEAS VALUE"],
 "data": [
  ["COc1nc2c(cc1C(=O)N1C[C@H](N)C[C@H]1C(=O)NC(C)C)CCC2", "%", 6.51],
  ["CCOC(CC)C(=O)NCc1ccnc(Oc2ccc(F)cc2)c1 (configuration not stated)", "%", -3.28]
]}

// Percent Effect value for Cc1cc(C)n(CCC(=O)N2CCC(c3nc(C(C)C)no3)CC2)n1 : 5.8

According to the records, this compound O=C(c1cc2c(s1)CCC2)N1CCCCC1Cn1cccn1 (configuration not stated) displays Percent Effect of -5.11

###

Recorded Percent Effect by entry
- MEASURED ON: AMP-activated protein kinase, AMPK (Homo sapiens) (UniProt P54646+O43741+P54619+Q9UGJ0+Q9Y478+Q13131+Q9UGI9)
- ASSAY DETAILS: AMP-dependent Kinase enzyme assay. An in vitro enzyme assay that detects ADP turnover that is directly proportional to AMPK activity. This uses naive AMPK that is activated during the assay with MK-8722
- Format: functional
- Parameters: scale not given: direction of the effect not stated beside the values
- SETTINGS: 30 µM
Just the number in %, nothing appended.

{"columns": ["COMPOUND", "MEAS VALUE"],
 "data": [
  ["Cc1nc(CSCCC(=O)NCc2cccnc2N(C)C)cs1", -1.17],
  ["CCOc1cccc(NS(=O)(=O)c2cc(C)c(C(=O)O)s2)c1", -13.3],
  ["O=C(C1=CC2(CCNCC2)c2ccccc21)N1CCCC1", 6.96],
  ["O=C(NC[C@]12COC[C@H]1CN(C1CCOCC1)C2)c1ccco1", 4.78],
  ["CC1=Nc2c(c(=O)[nH]n2C(C)C)C(c2ccccc2)S1 (stereo unspecified)", 12.2]
]}

# evaluate next
Consider O=C(C1SCCc2sccc21)N1CCN(CCO)CC1 (stereo unspecified) . Its measured Percent Effect is -1.14

###

List of Percent Effect values.
- System: Trypanosoma cruzi
- ASSAY DETAILS: Trypanosoma cruzi phosphomannomutase and mannose-1-phosphate guanylyltransferase assay
- Format: functional
- Set-up: scale not given: direction of the effect not stated beside the values
- SETTINGS: 10 µM

Some solved entries appear below for comparison.
{"columns": ["COMPOUND", "MEASURED ON", "MEASURE", "MEAS VALUE"],
 "data": [
  ["Cc1cc(F)ccc1OC1(C(=O)O)CCN(Cc2cccnc2N)CC1", "Trypanosoma cruzi", "Percent Effect", "-3.02%"],
  ["Cc1csc(C2CCCCN2C(=O)CN(C)C2CC2)n1 (configuration not stated)", "Trypanosoma cruzi", "Percent Effect", "2.56%"],
  ["COc1ccccc1CC1CCCN(CCC#N)C1 (configuration not stated)", "Trypanosoma cruzi", "Percent Effect", "3.82%"],
  ["Cn1nccc1CNC(=O)Nc1cc(C(F)(F)F)c[nH]c1=O", "Trypanosoma cruzi", "Percent Effect", "2.44%"]
]}

Observed Percent Effect, Trypanosoma cruzi, O=C(c1ccc(Br)s1)N1CCN(Cc2ccc(OC(F)(F)F)cc2)CC1 : -3.72%

Record CCCn1[nH]cc/c1=N\C(=O)CN1CCCC1c1c(C)nn(C)c1C (configuration not stated) / Trypanosoma cruzi, Percent Effect recorded as 7.45%

Lab entry: Trypanosoma cruzi assay, compound Cn1ccnc1CN1CCN(CC(O)c2ccco2)CC1 (configuration not stated) , Percent Effect = -1.86%
